# target-or-system: Concanavalin-A (Canavalia ensiformis) (UniProt P02866)
# Sequence (P02866 whole entry, looked up): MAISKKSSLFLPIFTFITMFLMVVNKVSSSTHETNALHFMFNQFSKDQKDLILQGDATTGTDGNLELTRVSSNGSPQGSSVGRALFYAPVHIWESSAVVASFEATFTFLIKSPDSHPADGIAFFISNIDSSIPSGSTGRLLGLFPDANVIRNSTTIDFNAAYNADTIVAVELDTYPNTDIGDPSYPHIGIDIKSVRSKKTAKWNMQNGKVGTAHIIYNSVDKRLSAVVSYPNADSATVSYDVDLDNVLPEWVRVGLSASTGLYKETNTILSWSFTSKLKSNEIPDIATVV
# protocol-summary: ConA small-molecule binders, primary screen, artefact control for SMM control protein annotation, biochemical, small-molecule microarray, Alexa647 label, 635 nm (AID 1127);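 further: z combines 667 nm emission intensity with signal-to-noise across three replicate slides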
# particulars: ConA-A647 binding fluorescence, higher = more signal
measurement-name: composite z-score

Consider the reported composite z-score for these compounds:
- C=CCC(OC(C)=O)[C@@H]1[C@@H](N(Cc2cccc3ccccc23)C(=O)c2cccc3ccccc23)c2cc(OCCCO)ccc2N1C(=O)Cc1ccc2ccccc2c1 (some centres not stated): -0.508
- COC(=O)[C@@]1(Cc2ccc(F)cc2)[C@H]2c3cc(C(=O)N(C)C)n(CCO)c3C[C@H]2CN1C(=O)c1ccccc1: -0.0249
- COCCOC(=O)N1C(=O)[C@@]2(c3ccccc31)[C@H](C(N)=O)[C@H]1C(=O)O[C@H](c3ccccc3)[C@H](c3ccccc3)N1[C@@H]2c1ccc(OCCO)cc1: 1.15
- CCOC(=O)C[C@H]1[C@H](OC(=O)c2ccc(-c3ccccc3)cc2)[C@@H](NC(=O)CC(C)C)c2cc(OCCCO)ccc2N1C(=O)Cc1ccc(OC)cc1: -0.286
- COc1ccccc1CN1C(=O)c2ccccc2[C@](Cc2ccccc2I)(C(=O)NCCCN(C)C)[C@@H]1c1ccc(CO)cc1: 1.11
- CN(C)CCCC[C@@H]1NC(=O)[C@@H]2C[C@H](C(=O)NCc3ccc(F)cc3)[C@H](c3ccc(O)cc3)N2C1=O: 0.911
- CC(C)=CCN(C(=O)C#Cc1ccccc1)[C@H](CO)c1ccccc1: 0.101
- C=CCC(OC(C)=O)[C@@H]1[C@@H](N(Cc2cc3ccccc3o2)C(=O)c2ccc(-c3ccccc3)cc2)c2cc(OCCCO)ccc2N1C(=O)c1ccc2ccccc2n1 (some centres not stated): -1.34

I'm curious: which composite z-score was measured for C[C@H]1C2[C@H](Cc3ccccc3)NC(=O)[C@]23C(=O)NCC(=O)N2CCC[C@H]2C(=O)NC/C=C\C/C=C/C3[C@@H]2O[C@]12C (some centres not stated) tested on Concanavalin-A (Canavalia ensiformis) (UniProt P02866)?
-0.351

How about this compound: CC(C)(C)N1CC=CC23O[C@@H]4/C=C\CCCOC(=O)C4[C@H]2C(=O)N(CCCCCCO)[C@@H]3C1=O (some centres not stated)
-1.42
